Ref: PubChem BioAssay (NCI)

Tested on: NCI-H23 lung
procedure_text: NCI tumour cell line growth inhibition, 48 h
Where a SMILES comes first, the peptide text is derived from it. The star is where a group is joined. Fmoc = O=C(OCC1c2ccccc2-c2ccccc21)*; OBn = c1ccc(CO*)cc1; tBu = CC(C)(C)*
recorded_metric: TGI

- compound: "O=C(/C=C/c1ccccn1)c1ccccc1"
  reported_measurement: "34.8 µM"
- compound: "Fc1cccc(C2ON=C(c3ccccc3)N2C23CC4CC(CC(C4)C2)C3)c1 (stereo unspecified)"
  reported_measurement: "> 10 µM"
- compound: "Cc1cc(C)nc(NS(=O)(=O)c2ccc(NC(=O)c3ccc4nc5ccccc5c(Nc5ccc(S(=O)(=O)N=C(N)N)cc5)c4c3)cc2)n1"
  reported_measurement: "> 100 µM"
- compound: "COc1cc(COC(=O)N(C)[C@@H](Cc2ccccc2)C(=O)O)c([N+](=O)[O-])cc1OC"
  reported_measurement: "> 100 µM"
- compound: "CCOC1OC(C)(C=C(C#N)C#N)CCC1C (stereo unspecified)"
  reported_measurement: "> 100 µM"
- compound: "O=S1(=O)CS(=O)(=O)OCCCCCO1"
  reported_measurement: "> 100 µM"
- compound: "CCOC(=O)NC(Nc1ccc(C(=O)O)cc1)(C(F)(F)F)C(F)(F)F"
  reported_measurement: "> 100 µM"
- compound: "CCN(CCCl)c1cc(CN(C)C)cc(NC(=O)c2ccc(C(=O)Nc3cccc(N(CCCl)NN)c3)cc2)c1"
  reported_measurement: "0.626 µM"
- compound: "Cc1ccccc1NC(=O)C(=O)CC(=O)c1sc(-n2nc(-c3ccccc3)cc2-c2ccccc2)nc1C"
  reported_measurement: "> 100 µM"
- compound: "O=C(CCCCCCCCC(=O)N1C(=O)CC(=O)N(c2ccc(Cl)cc2)C1=S)N1C(=O)CC(=O)N(c2ccc(Cl)cc2)C1=S"
  reported_measurement: "> 100 µM"
- compound: "O=C(Nc1c(Cl)cc([N+](=O)[O-])cc1Cl)C(=O)C(C(=O)c1ccncc1)C1OC(=O)c2ccccc21 (stereo unspecified)"
  reported_measurement: "> 100 µM"
- compound: "Cc1cc(C)c(C2=NO[C@@H]3[C@H]2C(=O)C=C2N(Cc4ccccc4)CCO[C@@]23O)c(C)c1"
  reported_measurement: "> 100 µM"
- compound: "COC(=O)C1C(=O)NC2(C)CC1c1ccccc1O2 (stereo unspecified)"
  reported_measurement: "> 100 µM"
- compound: "COC(=O)[C@]1(c2cc3ccccc3[nH]2)CC2CNC1C1OC(C)(C)OC21 (stereo partly specified)"
  reported_measurement: "> 100 µM"
- compound: "O=C(NCCOC(=O)CCCCCCCCC(=O)OCCNC(=O)NC(=O)c1cn(Cc2ccccc2)c(=O)[nH]c1=O)NC(=O)c1cn(Cc2ccccc2)c(=O)[nH]c1=O"
  reported_measurement: "> 100 µM"
- compound: "Cc1c(C(=O)/C=C/c2ccc3c(c2)OCO3)[n+](=O)c2ccccc2n1[O-]"
  reported_measurement: "42.4 µM"
- compound: "O=C1Cc2c([nH]c3ccccc23)-c2cc(Br)ccc2N1"
  reported_measurement: "> 100 µM"
- compound: "Nc1cccc(C(=O)/C=C/c2ccccc2O)c1"
  reported_measurement: "> 100 µM"
- compound: "CC(C)NC(=O)OCCN=C1c2ccccc2C(Br)C(Br)c2ccccc21 (stereo unspecified)"
  reported_measurement: "53.8 µM"
- compound: "NCC[PH+](c1ccccc1)c1ccccc1.NCC[PH+](c1ccccc1)c1ccccc1.[Cl-].[Pt+4]"
  reported_measurement: "> 100 µM"
- compound: "Cc1nc(Nc2ccc(Cl)c(Cl)c2)sc1C(/C=C/c1ccc2c(c1)OCO2)=N/Nc1ccc([N+](=O)[O-])cc1[N+](=O)[O-]"
  reported_measurement: "> 100 µM"
- compound: "Nc1ncnc2c1ncn2CCCNO"
  reported_measurement: "> 100 µM"
- compound: "COc1ccc(C2NC(c3ccc(OC)cc3)C(C)C(=O)C2C)cc1 (stereo unspecified)"
  reported_measurement: "> 100 µM"
- compound: "C=C(c1ccc(C(=O)NCCCn2ccnc2)cc1)c1cc2c(cc1C)C(C)(C)CCC2(C)C"
  reported_measurement: "66.5 µM"
- compound: "CN(C)CN(C)c1nc(N(C)C)nc(N(C)C)n1"
  reported_measurement: "> 100 µM"
- compound: "C=C(C)C1CCC2(C)C1CCC1(C)C2CCC2C3(C)C4OC(OC4=O)C(C)(C)C3CCC21C (stereo unspecified)"
  reported_measurement: "> 100 µM"
- compound: "CCOc1ccc(N=Nc2c(-c3ccccc3)nn(C(=O)CC(=O)Nc3ccccc3Cl)c2-c2ccccc2)cc1"
  reported_measurement: "> 100 µM"
- compound: "CCCCCCCC(=O)OC[n+]1cccc(-c2c(COC(=O)NC(C)C)c(COC(=O)NC(C)C)c3n2CCC3)c1"
  reported_measurement: "> 100 µM"
- compound: "CCCCCCCCCCCCCCCCOC[C@H](COC(c1ccccc1)(c1ccccc1)c1ccccc1)O[P+](=S)OC (stereo partly specified)"
  reported_measurement: "> 100 µM"
- compound: "FC(F)(Sc1ncccn1)c1nc2ccccc2o1"
  reported_measurement: "> 100 µM"
- compound: "CN1CCC(C(=O)Nc2n[nH]c3nnc(-c4ccccc4)cc23)CC1"
  reported_measurement: "> 25 µM"
- compound: "CC(CSc1nc2c(c(=N)n1-c1ccccc1)c(=S)n(-c1ccccc1)c(=S)n2-c1ccccc1)CN(C)C (stereo unspecified)"
  reported_measurement: "4.89 µM"
- compound: "CC(C)(C)[C@H]1NC(=O)CN1C(=O)OCc1ccccc1"
  reported_measurement: "> 100 µM"
- compound: "COc1ccc(C2CC(c3cccc(Nc4ccncc4)c3)=NN2c2ccccc2)cc1 (stereo unspecified)"
  reported_measurement: "3.87 µM"
- compound: "C=C1CCC2C(C)(CO)C(O)CCC2(C)C1C/C=C1\\C(=O)OCC1O (stereo unspecified)"
  reported_measurement: "49.8 µM"
- compound: "CC(C)C(Nc1c2ccccc2[n+](C)c2ccccc12)C(=O)O (stereo unspecified)"
  reported_measurement: "> 100 µM"
- compound: "Cn1c(COC(=O)NC2CCCCC2)c(COC(=O)NC2CCCCC2)c2ccc3ccccc3c21"
  reported_measurement: "71.6 µM"
- compound: "CC(OC(C)(C)C)C(NC(=O)OCC1c2ccccc2-c2ccccc21)C(=O)NC(Cc1ccccc1)C(=O)OCc1ccccc1 (stereo unspecified) (Fmoc-Thr(tBu)-Phe-OBn; configuration not given here)"
  reported_measurement: "> 100 µM"
- compound: "CNc1ccc(CSc2ccc(C)cc2)cc1"
  reported_measurement: "> 100 µM"
- compound: "Cc1nc2sc(C(=O)Nc3cccc(Cl)c3)c(N)c2cc1C(O)c1ccccc1 (stereo unspecified)"
  reported_measurement: "19.4 µM"
- compound: "CCOC(=O)/C(=C/c1cn(C(C)=O)c2ccccc12)P(=O)(OC)OC"
  reported_measurement: "> 100 µM"
